# target_desc: HIV Env of isolate C4118.c09 (clade AE) (HIV)
# test_details: cell-based or functional assay
Catalogue of IC80 (µg/ml) with constrains readings, one per entry.

Please review the entries below; each comes with its answer.
ePGDM13 (antibody, V domains shown) VH: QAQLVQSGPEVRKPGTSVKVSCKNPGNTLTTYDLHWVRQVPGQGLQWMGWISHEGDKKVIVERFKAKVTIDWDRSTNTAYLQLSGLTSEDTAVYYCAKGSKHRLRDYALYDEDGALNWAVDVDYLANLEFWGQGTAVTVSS VL: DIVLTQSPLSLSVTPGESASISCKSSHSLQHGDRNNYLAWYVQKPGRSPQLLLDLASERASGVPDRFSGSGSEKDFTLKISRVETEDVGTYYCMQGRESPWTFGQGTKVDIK    0.005 µg/mL
ePGDM5 (antibody, V domains shown) VH: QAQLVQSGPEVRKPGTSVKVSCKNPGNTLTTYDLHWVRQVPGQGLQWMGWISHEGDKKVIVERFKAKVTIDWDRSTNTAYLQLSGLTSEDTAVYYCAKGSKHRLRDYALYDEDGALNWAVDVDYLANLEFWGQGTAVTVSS VL: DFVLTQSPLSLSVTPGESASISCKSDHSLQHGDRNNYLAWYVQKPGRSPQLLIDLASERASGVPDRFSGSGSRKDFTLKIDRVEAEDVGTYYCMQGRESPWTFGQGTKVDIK    0.002 µg/mL
PGDM1400 (antibody, V domains shown) VH: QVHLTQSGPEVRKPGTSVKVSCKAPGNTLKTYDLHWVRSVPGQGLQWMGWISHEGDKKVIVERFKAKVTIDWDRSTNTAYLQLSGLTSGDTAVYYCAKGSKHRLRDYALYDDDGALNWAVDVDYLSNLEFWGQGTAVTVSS VL: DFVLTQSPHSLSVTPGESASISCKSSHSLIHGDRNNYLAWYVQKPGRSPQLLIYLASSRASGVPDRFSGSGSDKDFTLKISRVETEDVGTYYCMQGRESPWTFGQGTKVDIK    0.006 µg/mL

Req: Would you kindly share the measured IC80 (µg/ml) with constrains for ePGDM9 (antibody, V domains shown) VH: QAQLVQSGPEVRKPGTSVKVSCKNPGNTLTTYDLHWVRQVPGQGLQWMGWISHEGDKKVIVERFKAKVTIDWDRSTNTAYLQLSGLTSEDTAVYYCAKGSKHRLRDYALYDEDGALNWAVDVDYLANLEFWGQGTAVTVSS VL: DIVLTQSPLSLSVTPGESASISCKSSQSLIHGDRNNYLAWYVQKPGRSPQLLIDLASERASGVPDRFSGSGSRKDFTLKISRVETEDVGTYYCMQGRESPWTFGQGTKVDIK ?
Resp: 0.005 µg/mL
